# Tested on: HEK-293T
# Experimental Protocol: Multiplex assay against HEK293T
# Format: toxicity, cell-based
# Condition Set: human, 12 h, 10 µM, compound concentration 10 uM, replicate 1
Measured Parameter: Population Hoechst High Intensity Objects (%)
Give the value in % but do not write % after it.

Sample records with Population Hoechst High Intensity Objects (%):
Entry "O=C1N/C(=N/c2ccccc2F)S/C1=C\c1ccc(C(=O)O)cc1" , Population Hoechst High Intensity Objects (%) reported as 14

Entry "CCc1cccc(CC)c1NC(=O)c1nn(C)c2c1CCc1cnc(Nc3ccc(N4CCN(C)CC4)cc3OC)nc1-2" , Population Hoechst High Intensity Objects (%) reported as 14

Entry "Cl.O=c1c2cccn2c2ccccc2n1CCCN1CCC(c2ccc(Cl)cc2)CC1" , Population Hoechst High Intensity Objects (%) reported as 17

Entry O=C(Nc1ccc(-n2nc(-c3cccnc3)cc2C(F)(F)F)cn1)c1ccc(-c2ccccc2)c(F)c1 [BI 2049] , Population Hoechst High Intensity Objects (%) reported as 11

Entry "CCN1CCN(Cc2ccc(Nc3ncc(F)c(-c4cc(F)c5nc(C)n(C(C)C)c5c4)n3)nc2)CC1.CS(=O)(=O)O" , Population Hoechst High Intensity Objects (%) reported as 25

Entry "S=C(NCCCc1c[nH]cn1)NCCCN(Cc1ccc(Cl)c(Cl)c1)c1ccc(Br)cn1" , Population Hoechst High Intensity Objects (%) reported as 13

Entry CCCn1c(=O)c2[nH]c(-c3cnn(Cc4cccc(C(F)(F)F)c4)c3)nc2n(CC)c1=O [GS 6201] , Population Hoechst High Intensity Objects (%) reported as 25

Entry CN(C)C(=O)C(CCN1CCC(O)(c2ccc(Cl)cc2)CC1)(c1ccccc1)c1ccccc1.Cl [LOPERAMIDE HYDROCHLORIDE] , Population Hoechst High Intensity Objects (%) reported as 20

---
Entry "O=C(Nc1cccnn1)N1CCC(=Cc2cccc(Oc3ccc(C(F)(F)F)cn3)c2)CC1" , Population Hoechst High Intensity Objects (%) reported as 9

Entry O=C1NC(=O)C(c2cnc3ccccn23)=C1c1cn2c3c(cc(F)cc13)CN(C(=O)N1CCCCC1)CC2 [LY-2090314] , Population Hoechst High Intensity Objects (%) reported as 17

* * *

# Test system: Fibroblast
# Experimental Protocol: Multiplex assay against human fibroblast
# Format: toxicity, cell-based
# Condition Set: 24 h, 10 µM, compound concentration 10 uM, replicate 2
Measured Parameter: Population Hoechst High Intensity Objects (%)
Give the value in % but do not write % after it.

Sample records with Population Hoechst High Intensity Objects (%):
Entry "CNC(=O)c1ccc(Nc2nc(OC3CCCC3)c3c(-c4ccc5nc(C)oc5c4)c[nH]c3n2)c(OC)c1" , Population Hoechst High Intensity Objects (%) reported as 40

Entry "O=C(Nc1ccc(-n2nc(-c3cccnc3)cc2C(F)(F)F)cn1)c1ccc(-c2ccccc2)c(F)c1" , Population Hoechst High Intensity Objects (%) reported as 3

Entry "CCc1cccc(CC)c1NC(=O)c1nn(C)c2c1CCc1cnc(Nc3ccc(N4CCN(C)CC4)cc3OC)nc1-2" , Population Hoechst High Intensity Objects (%) reported as 20

Next:
Entry "CCCS(=O)(=O)c1nc(NC2CC2)cc(-c2ccc3c(ccn3C3CC(C)(C)NC(C)(C)C3)c2)n1" , Population Hoechst High Intensity Objects (%) reported as 7
